Below is a list of entries, each paired with its recorded pIC50 value.
# Assay Explanation: Antiproliferative activity against human MCF7 cells after 48 hrs by MTT assay
# Format: functional, cell-based
# Study Conditions: MCF7, 48 h
pIC50: −log10 of the molar value.
Observable: pIC50

Smiles Notation: COc1cc(-c2nnnn2-c2ccc(-c3nc4ccc(F)cc4s3)cc2C)cc(OC)c1OC
Observable: pIC50
Result: 5.49
--
Smiles Notation: COc1cc(-c2nncn2-c2ccc(-c3nc4ccc(F)cc4s3)cc2)cc(OC)c1OC
Observable: pIC50
Result: 4.90
--
Smiles Notation: COc1cc(-c2nc3cc(OC)c(OC)c(OC)c3s2)ccc1-n1cnnc1-c1cc(OC)c(OC)c(OC)c1
Observable: pIC50
Result: 4.98
--
Smiles Notation: COc1cc(-c2nc3ccc(F)cc3s2)ccc1-n1cc(-c2cc(OC)c(OC)c(OC)c2)nn1
Observable: pIC50
Result: 4.79
--
Smiles Notation: COc1cc(OC)c2sc(-c3ccc(-n4cc(-c5cc(OC)c(OC)c(OC)c5)nn4)c(C)c3)nc2c1
Observable: pIC50
Result: 4.73
--
Smiles Notation: COc1cc(OC)c2sc(-c3ccc(-n4cnnc4-c4cc(OC)c(OC)c(OC)c4)c(C)c3)nc2c1
Observable: pIC50
Result: 5.27
--
Smiles Notation: COc1cc(-c2nc3ccc(F)cc3s2)ccc1-n1cnnc1-c1cc(OC)c(OC)c(OC)c1
Observable: pIC50
Result: 5.60
--
Smiles Notation: COc1ccc2nc(-c3ccc(-n4cc(-c5cc(OC)c(OC)c(OC)c5)nn4)cc3)sc2c1
Observable: pIC50
Result: 4.64
--
Smiles Notation: COc1cc(-c2nnnn2-c2ccc(-c3nc4cc(OC)c(OC)c(OC)c4s3)cc2C)cc(OC)c1OC
Observable: pIC50
Result: 4.76
--
Smiles Notation: COc1cc(-c2nc3cc(OC)c(OC)c(OC)c3s2)ccc1-n1cc(-c2cc(OC)c(OC)c(OC)c2)nn1
Observable: pIC50
Result: 4.56
--
Smiles Notation: COc1cc(OC)c2sc(-c3ccc(-n4cc(-c5cc(OC)c(OC)c(OC)c5)nn4)cc3)nc2c1
Observable: pIC50
Result: 4.70
